Tested on: TH+ dopaminergic and Map2+ general neurons in AMOs
Method Notes: Dose-response analysis, TH and Map2 content by high content imaging
Format: cell-based, human
Conditions: 0.01-1,000 μM (rotenone up to 100 μM), 48 h + 6 days, both AMO lines
Recorded Endpoint: Map2 content (general neurons)

In [3]: df
Out[3]:
                                   molecule               recorded_endpoint    recorded_value
0  Oc1c(Cl)cc(Cl)c(Cl)c1Cc1c(O)c(Cl)cc(Cl)c1Cl [HCP, hexachlorophene]  Map2 content (general neurons)  strongly reduced
1  COc1ccc2cc3[n+](cc2c1OC)CCc1cc2c(cc1-3)OCO2 [BC, berberine chloride]  Map2 content (general neurons)  strongly reduced
2  CC(C)(c1cc(Br)c(O)c(Br)c1)c1cc(Br)c(O)c(Br)c1 [TBBPA, 3,3′,5,5′-tetrabromobisphenol A]  Map2 content (general neurons)  strongly reduced
